System: TK-10 renal
Experiment: NCI-60 one-dose screen, 48 h (100 = growth as untreated, 0 = no growth, -100 = all killed)
Conditions: 10 µM unless noted
Compounds without any hit were thinned out: in the full panel of roughly 83,000, 20% have a hit.
READOUT: growth (%)
Just the number in %, nothing appended.

INSERT INTO results (molecule, readout, recorded_measurement) VALUES
  ('Clc1ccc(Nc2ncnc3c2sc2ncccc23)c(Cl)c1', 'growth', 59.6),
  ('COc1ccc(-c2[nH]nc(N)c2-c2cc(OC)c(OC)c(OC)c2)cc1', 'growth', 34.9),
  ('COc1cc(NC(C)CCCN)c2ncccc2c1Sc1ccc(Cl)cc1 (stereo not given)', 'growth', 78.6),
  ('CC(C)(C)NC(=O)C(OC(=O)C1CCc2cc(F)ccc2O1)c1ccccc1Cl (stereo not given)', 'growth', 99),
  ('C#CC[C@@H]1C[C@]2(C)[C@H]3CC=C4[C@H]5[C@@H](C)[C@H](C)CC[C@]5(C(=O)NCCCN5CCN(CCCN)CC5)CC[C@@]4(C)[C@]3(C)CC[C@H]2C(C)(C)[C@H]1OC(C)=O', 'growth', -32.8),
  ('COc1cc(OC)cc(-c2n/c(=C\c3c(O)[nH]c4ccc(Cl)cc34)cc3c2=Nc2ccccc2-3)c1', 'growth', 116),
  ('ClCc1cccc(CSc2ncnc3c2ncn3Cc2cccc(CCl)c2)c1', 'growth', 48.4),
  ('CCCCCCCCCCCCCC(=S)NCCCC[C@H](NC(=O)OCc1ccccc1)C(=O)Nc1ccccc1', 'growth', 44.2),
  ('CC1=C(O)C(=O)C(c2c(C)cc(C)c(Br)c2C)=C(O)C1=O', 'growth', 73.6),
  ('CCC(C)C1NC(=O)c2nc(oc2-c2ccccc2)-c2csc(n2)-c2csc(n2)-c2nc(oc2C)-c2coc(n2)CNC(=O)C(C(C)CC)NC1=O (stereo not given)', 'growth', -86.7);

Exam item: I have this molecule here, O=NN(CC(=O)NNc1ccccc1)CC(=O)NNc1ccccc1 , and I need its recorded growth.
Marked response: 84.3

Exam item: Requested read-out: growth. Entry: CCCCCCCCCCCC1=NC(C)(C)CN1C(C)(C)CO
Marked response: 70.3

Exam item: Value lookup for growth; key = O=Cc1ccc2nc(C(Cl)(Cl)Cl)ccc2c1
Marked response: 101

Exam item: Consider the molecule shown here: Cn1nc(C(F)(F)F)cc1-c1c[nH]c(OCc2ccc(Cl)cc2)c(-c2ccc(Cl)c(C(F)(F)F)c2)c1=O What is its recorded growth?
Marked response: 3.46

Exam item: Look at this molecule and give its reported growth. CCCCCCCCCCCCCCCCOc1ccc(S(=O)(=O)N(C)C)cc1[N+](=O)[O-]
Marked response: 86

Exam item: For the molecule shown here, COc1ccc(/C(=C\c2cc(OC)c(OC)c(OC)c2)C(=O)N2CCCNCC2)cc1 , give the reported growth.
Marked response: 101

Exam item: Please look up its growth: O=C1C=CC(=O)N1c1cccc(N2C(=O)C=CC2=O)c1
Marked response: 33.1

Exam item: Using the record for CN=C1C=C/C(=N/N=c2/ccn(O)cc2C)C=C1C , report its growth.
Marked response: 118

Exam item: Query: growth; subject: Cc1nc2ccc(Nc3nc(Cl)nc(N4CCOCC4)n3)cc2n1Cc1ccccc1
Marked response: 44.7

Exam item: For O=C(O)Cn1ccc2ccccc21 , what is its reported growth?
Marked response: 153
